Tested on: TO-3-N3 (biotin conjugate)
assay_explanation: pull-down binding Z-score (relative to library population); higher = stronger binding
condition_description: RNA library: Library-2
value_type: pull-down binding Z-score
Output spec: single numeric token, no unit.

In the examples that follow, each entry is paired with its recorded pull-down binding Z-score.
GGAGAAAAUUCC [IAV_invivo_PA_3_Motif_17+IAV_invivo_PA_3_Motif_17] | -0.517
UGAAGAAGAGUAUUGAUUGUGCUGUUCG [hsa-mir-6788] | 0.425
GGUUUAACUUCUAUUAAAUGGGCAGAUAACAACUGUUAUCUUGCCACUGCAUUGUUAACACUCCAACAAAUAGAGUUGAAGUUUAAUCC | -0.726
GGGGGUGGCCGGGGCUGACCCU [hsa-mir-939] | 2.48
CUGUGGUUUGCUGGCUGCCUCAG [hsa-mir-6736] | 0.2

Task: Could you tell me which pull-down binding Z-score is on file for CUUCACUGGUGCAGUAAGAAG [hsa-mir-7853] ?
Output: -0.0978

Task: Same question for CACAGAGUAAGCAUCAAUAGCAUUGGCAAGUUGAACUGAGCUGUC [hsa-mir-6895] please.
Output: -0.393

Task: Same question for AGGCCUGAGUCUCUCUGCUGCAGAUGGGCUC [hsa-mir-422a] please.
Output: -0.112

Task: Same question for ACAUCUCUGGCAUUAAUGCUUCAGUUGU [SHAPE_invivo_SARS-CoV-2_Motif_471] please.
Output: -1.08

Sourced from the supplement of paper PMC11865577
